// provenance: patent US10548894B2

System: five CRC-derived T1799 mutant BRAF cell lines
protocol-notes: CellTiter-Glo proliferation assay, panel summary
Format: cell-based
stated-conditions: absence of FGF2, read-out: IC50 values, range over cell lines
assay-readout: IC50

Looking up "COC(=O)N[C@@H](C)CNc1nccc(-c2cn(C(C)C)nc2-c2cc(Cl)cc(NS(C)(=O)=O)c2F)n1" , I found its IC50 recorded as 4 to 185 nM

----------
Recorded measurements of IC50, one per entry
Test system: SNU-C5
protocol-notes: 72 hr cell titer Glo proliferation assay, BRAFV600E mutant CRC cell lines
Type: cell-based
stated-conditions: SNU-C5 (PI3Kα mutation), single agent

[[record]]
smiles_representation = "Cc1nc(NC(=O)N2CCC[C@H]2C(N)=O)sc1-c1ccnc(C(C)(C)C(F)(F)F)c1"
assay_readout = "IC50"
measured_value = "> 2700 nM"


Let us examine a further case.
Bench note, SNU-C5: entry "COC(=O)N[C@@H](C)CNc1nccc(-c2cn(C(C)C)nc2-c2cc(Cl)cc(NS(C)(=O)=O)c2F)n1" , its IC50 = > 2700 nM
